Taken from patent US6809110B2.

[
  {
    "COMPOUND": "COc1cc(OC)cc(-c2nc(CCOc3ccc(CC(OC(C)C)C(=O)O)c4sccc34)c(C)s2)c1 (racemic) [Example 85]",
    "melting point": "150 to 152 °C"
  },
  {
    "COMPOUND": "CCCOC(Cc1ccc(OCCc2nc(-c3ccc(C)cc3)sc2C)c2ccccc12)C(=O)O (racemic) [Example 82]",
    "melting point": "123 to 124 °C"
  },
  {
    "COMPOUND": "CCOC(Cc1ccc(OCc2sc(-c3ccc(C(F)(F)F)cc3)nc2C)c2ccsc12)C(=O)O (racemic) [Example 139]",
    "melting point": "178 to 179 °C"
  },
  {
    "COMPOUND": "CCOC(Cc1ccc(OCCc2nc(-c3ccc(C)cc3)sc2C)c2ccccc12)C(=O)O (racemic) [Example 78]",
    "melting point": "140 to 141 °C"
  },
  {
    "COMPOUND": "CCOC(Cc1ccc(OCCc2nc(-c3ccc(C)cc3)sc2C)c2ccsc12)C(=O)O (racemic) [Example 72]",
    "melting point": "126 to 127 °C"
  },
  {
    "COMPOUND": "CCOC(Cc1ccc(OCCc2nc(-c3ccccc3)sc2C)c2ccccc12)C(=O)O (racemic) [Example 51]",
    "melting point": "140 to 143 °C"
  },
  {
    "COMPOUND": "CCOC(Cc1ccc(OCCc2nc(-c3cc(OC)cc(OC)c3)sc2C)c2ccccc12)C(=O)O (racemic) [Example 88]",
    "melting point": "133 to 135 °C"
  }
]

====

TESTED TARGET: PPARγ (Mus musculus, UniProt P37238)
METHOD: PPARγ radioligand binding assay (SPA, GST-PPARγ-LBD fusion protein)
TEST CONDITIONS: SPA beads
pIC50: −log10 of the molar value.
The entries below come with measured pIC50 values attached.
MEASURED QUANTITY: pIC50

[
  {
    "COMPOUND": "CCOC(Cc1ccc(OCCc2nc(-c3cc(OC)cc(OC)c3)sc2C)c(OC)c1)C(=O)O (racemic) [Example 64]",
    "TESTED TARGET": "PPARγ (Mus musculus, UniProt P37238)",
    "MEASURED QUANTITY": "pIC50",
    "RESULT VALUE": 7.08
  },
  {
    "COMPOUND": "CCOC(Cc1ccc(OCc2csc(-c3ccc(Cl)cc3)n2)c2ccoc12)C(=O)O (racemic) [Example 95]",
    "TESTED TARGET": "PPARγ (Mus musculus, UniProt P37238)",
    "MEASURED QUANTITY": "pIC50",
    "RESULT VALUE": 6.03
  }
]

====

TESTED TARGET: PPARγ (Mus musculus)
Sequence (P37238 204-505): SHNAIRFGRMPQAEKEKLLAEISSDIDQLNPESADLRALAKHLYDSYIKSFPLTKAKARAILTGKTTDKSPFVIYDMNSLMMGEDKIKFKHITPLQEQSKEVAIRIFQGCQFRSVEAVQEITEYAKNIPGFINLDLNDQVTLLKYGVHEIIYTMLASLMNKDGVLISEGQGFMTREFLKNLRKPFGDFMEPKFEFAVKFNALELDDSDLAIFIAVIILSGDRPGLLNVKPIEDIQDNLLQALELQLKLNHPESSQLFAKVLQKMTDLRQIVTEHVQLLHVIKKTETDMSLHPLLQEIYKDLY
METHOD: PPARγ radioligand binding assay (SPA, GST-PPARγ-LBD fusion protein)
Set-up: PPARγ (aa 174 to 476)
TEST CONDITIONS: SPA beads
MEASURED QUANTITY: log10 IC50 (log10 of the value in µM)

[
  {
    "MOLECULE": "CCO[C@@H](Cc1ccc(OCc2csc(-c3cccc(Cl)c3)n2)cc1C)C(=O)O",
    "RESULT VALUE": -0.75
  },
  {
    "MOLECULE": "CCOC(Cc1ccc(OCCCc2csc(-c3ccc(C(C)C)cc3)n2)c(F)c1)C(=O)O (racemic)",
    "RESULT VALUE": -1.28
  },
  {
    "MOLECULE": "CCO[C@@H](Cc1ccc(OCc2csc(-c3ccc(Cl)cc3)n2)cc1C)C(=O)O",
    "RESULT VALUE": -0.13
  },
  {
    "MOLECULE": "CCOC(Cc1ccc(OCCCc2nc(-c3ccc(C(C)(C)C)cc3)sc2C)cc1C)C(=O)O (racemic)",
    "RESULT VALUE": -1.70
  },
  {
    "MOLECULE": "CCOC(Cc1ccc(OCc2csc(-c3ccc(Cl)cc3)n2)cc1C)C(=O)O (racemic)",
    "RESULT VALUE": -0.34
  },
  {
    "MOLECULE": "CCOC(Cc1ccc(OCc2csc(-c3ccc(C(C)C)cc3)n2)c(C)c1)C(=O)O (racemic)",
    "RESULT VALUE": -1.02
  },
  {
    "MOLECULE": "CCOC(Cc1ccc(OCCc2nc(-c3ccc(OC(F)(F)F)cc3)sc2C)c(C)c1)C(=O)O (racemic)",
    "RESULT VALUE": -1.38
  },
  {
    "MOLECULE": "CCOC(Cc1ccc(OCCc2csc(-c3ccc(C(F)(F)F)cc3)n2)c(F)c1)C(=O)O (racemic)",
    "RESULT VALUE": -0.27
  }
]

====

TESTED TARGET: PPARγ (Mus musculus, UniProt P37238)
METHOD: Luciferase transcriptional reporter gene assay, BHK21 cells transfected with PPARγ-LBD expression plasmid
TEST CONDITIONS: 24 hours incubation
MEASURED QUANTITY: EC50 (nM)

[
  {
    "MOLECULE": "CCOC(Cc1ccc(OCCCc2nc(-c3ccc(C(C)(C)C)cc3)sc2C)cc1C)C(=O)O (racemic)",
    "MEASURED QUANTITY": "EC50",
    "UNIT NAME": "nM",
    "RESULT VALUE": 42
  },
  {
    "MOLECULE": "CCO[C@@H](Cc1ccc(OCc2csc(-c3cccc(Cl)c3)n2)cc1C)C(=O)O",
    "MEASURED QUANTITY": "EC50",
    "UNIT NAME": "nM",
    "RESULT VALUE": 60
  },
  {
    "MOLECULE": "CCOC(Cc1ccc(OCc2csc(-c3ccc(Cl)cc3)n2)c2ccoc12)C(=O)O (racemic)",
    "MEASURED QUANTITY": "EC50",
    "UNIT NAME": "nM",
    "RESULT VALUE": 1580
  }
]

====

TESTED TARGET: PPARγ (Mus musculus, UniProt P37238)
METHOD: Luciferase transcriptional reporter gene assay, BHK21 cells transfected with PPARγ-LBD expression plasmid
Format: cell-based
Set-up: PPARγ (aa 174 to 476) and PPARα (aa 167 to 469); expressed in transfected cells; host or cells: BHK21 (ATCC CCL10)
TEST CONDITIONS: 24 hours incubation
Protocol: Full-length cDNA clones for human PPARα and mouse PPARγ were obtained by RT-PCR from human adipose and mouse liver cRNA, respectively, cloned into plasmid vectors and verified by DNA sequencing. […] Baby hamster kidney cells (BHK21 ATCC CCL10) were grown in DMEM medium containing 10% FBS at 37° C. in a 95%02:5%CO2 atmosphere. […] Following incubation of the cells for 24 hours with substances, 50 ul of the supernatant was recovered and analyzed for SEAP activity (Roche Molecular Biochemicals). […]
MEASURED QUANTITY: EC50 (nM)

[
  {
    "MOLECULE": "CCOC(Cc1ccc(OCCc2nc(-c3ccc(OC(F)(F)F)cc3)sc2C)c(C)c1)C(=O)O (racemic)",
    "TESTED TARGET": "PPARγ (Mus musculus, UniProt P37238)",
    "UNIT NAME": "nM",
    "RESULT VALUE": 411
  },
  {
    "MOLECULE": "CCOC(Cc1ccc(OCc2csc(-c3ccc(Cl)cc3)n2)cc1C)C(=O)O (racemic)",
    "TESTED TARGET": "PPARγ (Mus musculus, UniProt P37238)",
    "UNIT NAME": "nM",
    "RESULT VALUE": 608
  },
  {
    "MOLECULE": "CCOC(Cc1ccc(OCCc2csc(-c3ccc(C(F)(F)F)cc3)n2)c(F)c1)C(=O)O (racemic)",
    "TESTED TARGET": "PPARγ (Mus musculus, UniProt P37238)",
    "UNIT NAME": "nM",
    "RESULT VALUE": 508
  },
  {
    "MOLECULE": "CCOC(Cc1ccc(OCCCc2csc(-c3ccc(C(C)C)cc3)n2)c(F)c1)C(=O)O (racemic)",
    "TESTED TARGET": "PPARγ (Mus musculus, UniProt P37238)",
    "UNIT NAME": "nM",
    "RESULT VALUE": 543
  },
  {
    "MOLECULE": "CCOC(Cc1ccc(OCCc2nc(-c3cc(OC)cc(OC)c3)sc2C)c(OC)c1)C(=O)O (racemic)",
    "TESTED TARGET": "PPARγ (Mus musculus, UniProt P37238)",
    "UNIT NAME": "nM",
    "RESULT VALUE": 281
  },
  {
    "MOLECULE": "CCO[C@@H](Cc1ccc(OCc2csc(-c3ccc(Cl)cc3)n2)cc1C)C(=O)O",
    "TESTED TARGET": "PPARγ (Mus musculus, UniProt P37238)",
    "UNIT NAME": "nM",
    "RESULT VALUE": 209
  },
  {
    "MOLECULE": "CCOC(Cc1ccc(OCc2csc(-c3ccc(C(C)C)cc3)n2)c(C)c1)C(=O)O (racemic)",
    "TESTED TARGET": "PPARγ (Mus musculus, UniProt P37238)",
    "UNIT NAME": "nM",
    "RESULT VALUE": 389
  }
]
